Each entry below carries its reported kon.
# TESTED TARGET: T1, human programmed cell death protein 1 (hPD-1) C93S (aa 24-167) (Homo sapiens, UniProt Q15116, C93S)
# T1 construct: made as a fusion with a TEV site and human Fc; the Fc was cut off with TEV protease; source: Expi293F, purified (Protein A, TEV cleavage of Fc, SEC; monomer fractions); not shown: Fc (human), C-terminal, cleaved
# T1 sequence (Q15116 24-167 C93S): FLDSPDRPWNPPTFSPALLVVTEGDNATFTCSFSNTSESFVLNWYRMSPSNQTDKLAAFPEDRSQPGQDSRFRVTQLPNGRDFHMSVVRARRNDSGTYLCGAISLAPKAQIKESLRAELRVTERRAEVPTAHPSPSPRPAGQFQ
# EXPERIMENT NOTES: SPR; Carterra LSA; Fab from the ammonium sulfate precipitate of the culture supernatant immobilised on a NiHC200M chip; hPD-1 (1-1024 nM) or mPD-1-Fc (4-1024 nM) as analyte, fourfold dilution series, no regeneration; HBS-EP pH 7.4, 25 °C; medians over the spots of a construct, KD = koff/kon
# RUN PARAMETERS: one partner purified
Entry rule: numbers only, all in M⁻¹ s⁻¹.

Recorded kon, per entry:
toripalimab Fab H.D113Y (Fab, V domains shown, heavy chain of Sm3 with this change; numbers count from the chain's first residue; as the light chain of Sm3; source: Brevibacillus, culture supernatant (ammonium sulfate precipitate); not shown: 6xHis, C-terminal, kept; 6xHN, C-terminal, kept) VH: QGQLVQSGAEVKKPGASVKVSCKASGYTFTDYEMHWVRQAPIHGLEWIGVIESETGGTAYNQKFKGRVTITADKSTSTAYMELSSLRSEDTAVYYCAREGITTVATTYYWYFYVWGQGTTVTVSS VL: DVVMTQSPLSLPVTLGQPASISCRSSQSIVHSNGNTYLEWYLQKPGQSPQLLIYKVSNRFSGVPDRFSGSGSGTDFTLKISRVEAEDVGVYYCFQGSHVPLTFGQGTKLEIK ... 6230
toripalimab Fab H.T55A (Fab, V domains shown, heavy chain of Sm3 with this change; numbers count from the chain's first residue; as the light chain of Sm3; source: Brevibacillus, culture supernatant (ammonium sulfate precipitate); not shown: 6xHis, C-terminal, kept; 6xHN, C-terminal, kept) VH: QGQLVQSGAEVKKPGASVKVSCKASGYTFTDYEMHWVRQAPIHGLEWIGVIESEAGGTAYNQKFKGRVTITADKSTSTAYMELSSLRSEDTAVYYCAREGITTVATTYYWYFDVWGQGTTVTVSS VL: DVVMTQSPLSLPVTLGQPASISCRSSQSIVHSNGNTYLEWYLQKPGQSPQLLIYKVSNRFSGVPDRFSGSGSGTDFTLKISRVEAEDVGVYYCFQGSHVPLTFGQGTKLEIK ... 6960
toripalimab Fab L.N33A (Fab, V domains shown, as the heavy chain of Sm3; light chain of Sm3 with this change; numbers count from the chain's first residue; source: Brevibacillus, culture supernatant (ammonium sulfate precipitate); not shown: 6xHis, C-terminal, kept; 6xHN, C-terminal, kept) VH: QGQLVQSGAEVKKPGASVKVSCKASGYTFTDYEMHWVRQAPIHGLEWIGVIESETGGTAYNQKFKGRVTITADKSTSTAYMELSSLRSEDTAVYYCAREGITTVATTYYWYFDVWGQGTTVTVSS VL: DVVMTQSPLSLPVTLGQPASISCRSSQSIVHSAGNTYLEWYLQKPGQSPQLLIYKVSNRFSGVPDRFSGSGSGTDFTLKISRVEAEDVGVYYCFQGSHVPLTFGQGTKLEIK ... 29300

Recorded kon for toripalimab Fab H.M34A (Fab, V domains shown, heavy chain of Sm3 with this change; numbers count from the chain's first residue; as the light chain of Sm3; source: Brevibacillus, culture supernatant (ammonium sulfate precipitate); not shown: 6xHis, C-terminal, kept; 6xHN, C-terminal, kept) VH: QGQLVQSGAEVKKPGASVKVSCKASGYTFTDYEAHWVRQAPIHGLEWIGVIESETGGTAYNQKFKGRVTITADKSTSTAYMELSSLRSEDTAVYYCAREGITTVATTYYWYFDVWGQGTTVTVSS VL: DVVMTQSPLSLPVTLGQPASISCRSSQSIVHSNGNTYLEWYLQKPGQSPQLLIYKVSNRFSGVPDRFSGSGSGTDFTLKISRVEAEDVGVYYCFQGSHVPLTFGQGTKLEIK , please?
33900
